- Protocol summary: Oral bioavailability in Wistar rat at […] by HPLC-MS/MS method
- Format: ADME, organism-based
- Assay conditions: in vivo
Endpoint: bioavailability (%)
Numeric answer only, unit % assumed.

Look up and state reported bioavailability for CC(C)(C)c1cc(NC(=O)[C@@H]2CCCCN2C(=O)N2CCS(=O)(=O)CC2)no1
62

====

- Protocol summary: Volume of distribution at steady state in Wistar rat at 0.4 mg/kg, iv by HPLC-MS/MS method
- Format: ADME, organism-based
- Parameters: dose 0.4 mg/kg, route intravenous
- Assay conditions: in vivo, read-out: Vdss
Endpoint: Vd (L/kg)
Form entry: value (L/kg) — number only.

Using the record for CC(C)(C)c1cc(NC(=O)[C@@H]2CCCCN2C(=O)N2CCS(=O)(=O)CC2)no1 , state its measured Vd.
0.5

====

- Protocol summary: Permeability from apical to basolateral side in human Caco2 cells by HPLC-MS/MS method
- Assay type: ADME, cell-based
- Assay conditions: Caco-2, read-out: permeability
Endpoint: Papp A→B
Answer with the figure and its unit, nothing else.

Return Papp A→B (reported value) for this molecule: CC(C)(C)c1cc(NC(=O)[C@@H]2CCCCN2C(=O)N2CCS(=O)(=O)CC2)no1
20 ×10⁻⁶ cm/s

====

- Protocol summary: Mean residence time in Wistar rat at 0.4 mg/kg, iv by HPLC-MS/MS method
- Assay type: ADME, organism-based
- Parameters: dose 0.4 mg/kg, route intravenous
- Assay conditions: in vivo
Endpoint: MRT (min)
Give the value in min but do not write min after it.

Indicate the recorded MRT value for this compound: CC(C)(C)c1cc(NC(=O)[C@@H]2CCCCN2C(=O)N2CCS(=O)(=O)CC2)no1
36

====

- Protocol summary: Permeability from basolateral to apical side in human Caco2 cells by HPLC-MS/MS method
- Format: ADME, cell-based
- Assay conditions: Caco-2, read-out: permeability
Endpoint: Papp B→A

Please indicate Papp B→A recorded for CC(C)(C)c1cc(NC(=O)[C@@H]2CCCCN2C(=O)N2CCS(=O)(=O)CC2)no1
22 ×10⁻⁶ cm/s
